Test: Therapeutic index, ratio of CC50 for human U937 cells to MIC90 for Candida albicans ATCC 10261
Assay type: cell-based, U-937
Record true whenever selectivity ratio is at 30 or higher; record false when lower.

Examples from the recorded data:
[
  {
    "molecule": "OC(Cn1cncn1)(Cn1cncn1)c1ccc(F)cc1F",
    "labelValue": "false"
  },
  {
    "molecule": "Cc1ccc(OC(CCn2ccnc2)c2ccc(Cl)cc2)cc1 (configuration not stated)",
    "labelValue": "true"
  },
  {
    "molecule": "Cc1ccc(C(CCn2ccnc2)Oc2ccc(Cl)cc2)cc1 (configuration not stated)",
    "labelValue": "true"
  },
  {
    "molecule": "CC(=O)N1CCN(c2ccc(OCC3COC(Cn4ccnc4)(c4ccc(Cl)cc4Cl)O3)cc2)CC1 (configuration not stated)",
    "labelValue": "false"
  },
  {
    "molecule": "Cc1ccc(OC(CCCn2ccnc2)c2ccc(Cl)cc2)cc1 (configuration not stated)",
    "labelValue": "true"
  }
]

Next:
Would you say Clc1ccc(COC(Cn2ccnc2)c2ccc(Cl)cc2Cl)cc1 (configuration not stated) shows selectivity ratio at minimum 30?
false

###

Below, each entry is listed with its recorded MIC.
Tested on: Arthrodermataceae
Test: Antifungal activity against dermatophytes at 28 degC after 7 days by broth microdilution test
Format: functional
Settings: 168 h
A number alone suffices; assume µg/mL.

Example cases with answers are listed next.
[
  {
    "compound": "Fc1ccc(C(CCn2ccnc2)Oc2ccccc2)cc1 (stereo not given)",
    "MIC / µg/mL": 16.1
  },
  {
    "compound": "Cc1ccc(C(CCn2ccnc2)Oc2ccc(C(C)(C)C)cc2)cc1 (stereo not given)",
    "MIC / µg/mL": 11.2
  },
  {
    "compound": "Clc1ccc(C(OCCn2ccnc2)c2ccccc2)c(Cl)c1.O=[N+]([O-])O (stereo not given)",
    "MIC / µg/mL": 7
  }
]

For the compound Cc1ccc(OC(CCn2ccnc2)c2ccc(F)cc2)cc1 (stereo not given) , give its measured MIC value.
10

For the compound Clc1ccc(OC(CCn2cncn2)c2ccccc2)c(Cl)c1 (stereo not given) , give its measured MIC value.
22.4

###

Below, each entry is listed with its recorded CC50 at 24 h.
Assay: Cytotoxicity against human U937 cells assessed as reduction of cell viability after 24 hrs by MTT assay
Format: cell-based, U-937
A number alone suffices; assume µM.

[
  {
    "compound": "CCc1ccc(OC(CCn2ccnc2)c2ccc(Cl)cc2)cc1 (configuration not stated)",
    "readoutUnit": "µM",
    "CC50 at 24 h": 265
  },
  {
    "compound": "Cc1ccc(C(CCn2ccnc2)Oc2cc(Cl)cc(Cl)c2)cc1 (configuration not stated)",
    "readoutUnit": "µM",
    "CC50 at 24 h": 160
  },
  {
    "compound": "Cc1ccc(OC(CCn2ccnc2)c2ccc(F)cc2)cc1 (configuration not stated)",
    "readoutUnit": "µM",
    "CC50 at 24 h": 120
  },
  {
    "compound": "Fc1ccc(C(CCn2ccnc2)Oc2cc(Cl)cc(Cl)c2)cc1 (configuration not stated)",
    "readoutUnit": "µM",
    "CC50 at 24 h": 160
  },
  {
    "compound": "Clc1ccc(C(CCn2ccnc2)Oc2ccc(Cl)cc2Cl)cc1 (configuration not stated)",
    "readoutUnit": "µM",
    "CC50 at 24 h": 172
  }
]

For the compound Cc1ccc(C(CCn2ccnc2)Oc2ccc(Cl)cc2)cc1 (configuration not stated) , give its measured CC50 at 24 h value.
168

For the compound CC(=O)N1CCN(c2ccc(OCC3COC(Cn4ccnc4)(c4ccc(Cl)cc4Cl)O3)cc2)CC1 (configuration not stated) [KETOCONAZOLE] , give its measured CC50 at 24 h value.
125

For the compound Cc1ccc(C(CCn2ccnc2)Oc2ccc(C)cc2Cl)cc1 (configuration not stated) , give its measured CC50 at 24 h value.
151

For the compound Clc1ccc(C(CCn2ccnc2)Oc2ccccc2Cl)cc1 (configuration not stated) , give its measured CC50 at 24 h value.
209

For the compound Fc1ccc(C(CCn2ccnc2)Oc2ccc(Cl)cc2Cl)cc1 (configuration not stated) , give its measured CC50 at 24 h value.
120

###

Tested on: Candida albicans
Experiment: Antifungal activity against Candida albicans ATCC 10261 at 35 degC after 48 hrs by broth microdilution test
Format: functional
measuredParameter: MIC90 (µg/mL)
A number alone suffices; assume µg/mL.

[
  {
    "compound": "Clc1ccc(OC(CCn2ccnc2)c2ccccc2)c(Cl)c1 (stereo in doubt; (+)-14a)",
    "measurementTarget": "Candida albicans",
    "MIC90 / µg/mL": 4
  },
  {
    "compound": "Clc1ccc(OC(CCn2ccnc2)c2ccccc2)c(Cl)c1 (racemic)",
    "measurementTarget": "Candida albicans",
    "MIC90 / µg/mL": 8
  },
  {
    "compound": "Clc1ccc(OC(CCn2ccnc2)c2ccccc2)c(Cl)c1 (single isomer, unassigned; (-))",
    "measurementTarget": "Candida albicans",
    "MIC90 / µg/mL": 16
  },
  {
    "compound": "Cc1ccc(OC(CCn2ccnc2)c2ccccc2)cc1 (racemic)",
    "measurementTarget": "Candida albicans",
    "MIC90 / µg/mL": 16
  }
]

For the compound Cc1ccc(OC(CCn2ccnc2)c2ccccc2)cc1 (single isomer, unassigned; (-)) , give its measured MIC90 value.
64

For the compound Cc1ccc(OC(CCn2ccnc2)c2ccccc2)cc1 (single isomer, unassigned; (+)) , give its measured MIC90 value.
8

###

Test system: Arthrodermataceae
Test: Antifungal activity against dermatophytes at 28 degC after 7 days by broth microdilution test
Type: functional
Conditions: 168 h
Below, each entry is listed with its recorded log10 MIC.
Note the log scale: values are log10 of MIC expressed in µg/mL.

Example cases with answers are listed next.
[
  {
    "compound": "c1ccc(OC(CCn2ccnc2)c2ccccc2)cc1 (configuration not stated)",
    "log10 MIC": 1.38
  },
  {
    "compound": "Cc1ccc(C(CCn2ccnc2)Oc2ccc(Cl)cc2Cl)cc1 (configuration not stated)",
    "log10 MIC": 1.08
  },
  {
    "compound": "Clc1cc(Cl)cc(OC(CCn2ccnc2)c2ccccc2)c1 (configuration not stated)",
    "log10 MIC": 0.86
  },
  {
    "compound": "CCC(C)n1ncn(-c2ccc(N3CCN(c4ccc(OC[C@@H]5CO[C@@](Cn6cncn6)(c6ccc(Cl)cc6Cl)O5)cc4)CC3)cc2)c1=O (some centres not stated)",
    "log10 MIC": -0.85
  },
  {
    "compound": "Clc1ccc(C(CCn2ccnc2)Oc2ccccc2)cc1 (configuration not stated)",
    "log10 MIC": 0.86
  }
]

Now look at this entry.
For the compound Clc1ccc(COC(Cn2ccnc2)c2ccc(Cl)cc2Cl)cc1 (configuration not stated) , give its measured log10 MIC value.
0.32

###

System: Arthrodermataceae
Assay: Antifungal activity against dermatophytes at 28 degC after 5 days by broth microdilution test
measuredParameter: MFC90 (µg/mL)
A number alone suffices; assume µg/mL.

Example cases with answers are listed next.
[
  {
    "compound": "Clc1ccc(C(CCn2ccnc2)Oc2ccccc2)cc1 (stereo not given)",
    "measurementTarget": "Arthrodermataceae",
    "MFC90 / µg/mL": 32
  },
  {
    "compound": "Fc1ccc(C(CCn2ccnc2)Oc2ccccc2)cc1 (stereo not given)",
    "measurementTarget": "Arthrodermataceae",
    "MFC90 / µg/mL": 32
  },
  {
    "compound": "CC(=O)N1CCN(c2ccc(OCC3COC(Cn4ccnc4)(c4ccc(Cl)cc4Cl)O3)cc2)CC1 (stereo not given) [KETOCONAZOLE]",
    "measurementTarget": "Arthrodermataceae",
    "MFC90 / µg/mL": 8
  },
  {
    "compound": "Clc1ccc(OC(CCn2ccnc2)c2ccccc2)c(Cl)c1 (racemic)",
    "measurementTarget": "Arthrodermataceae",
    "MFC90 / µg/mL": 32
  },
  {
    "compound": "Clc1ccc(COC(Cn2ccnc2)c2ccc(Cl)cc2Cl)cc1 (stereo not given) [ECONAZOLE]",
    "measurementTarget": "Arthrodermataceae",
    "MFC90 / µg/mL": 8
  },
  {
    "compound": "Clc1ccc(C(CCn2ccnc2)Oc2cc(Cl)cc(Cl)c2)cc1 (stereo not given)",
    "measurementTarget": "Arthrodermataceae",
    "MFC90 / µg/mL": 16
  },
  {
    "compound": "Fc1ccc(C(CCn2ccnc2)Oc2cc(Cl)cc(Cl)c2)cc1 (stereo not given)",
    "measurementTarget": "Arthrodermataceae",
    "MFC90 / µg/mL": 32
  },
  {
    "compound": "Fc1ccc(C(CCn2ccnc2)Oc2c(Cl)cccc2Cl)cc1 (stereo not given)",
    "measurementTarget": "Arthrodermataceae",
    "MFC90 / µg/mL": 16
  },
  {
    "compound": "Clc1ccc(OC(CCn2cncn2)c2ccccc2)c(Cl)c1 (stereo not given)",
    "measurementTarget": "Arthrodermataceae",
    "MFC90 / µg/mL": 64
  }
]

Now look at this entry.
For the compound Cc1ccc(C(CCn2ccnc2)Oc2cc(Cl)cc(Cl)c2)cc1 (stereo not given) , give its measured MFC90 value.
16
